So I've got a bunch of compounds here, and I need their melting point values.

[in] Endpoint output: melting point of COc1ccccc1CNC(=O)c1ccc(-c2noc(C(F)(F)F)n2)cc1F [Compound 4b.5] . Value?
[out] 113.3 to 114.8 °C

[in] Endpoint output: melting point of O=C(NCc1ncc(C(F)(F)F)cc1Cl)c1ccc(-c2noc(C(F)(F)F)n2)cc1F [Compound 5b.4] . Value?
[out] 126.6 to 128.3 °C

[in] Endpoint output: melting point of CC1CC(NC(=O)c2ccc(-c3noc(C(F)(F)F)n3)cc2F)=NO1 (stereo not drawn) [Compound 1b.15] . Value?
[out] 152.5 to 155.9 °C
